# Tested on: OVCAR-8 ovarian
# experimental protocol: NCI tumour cell line growth inhibition, 48 h
# TGI per entry
property label: TGI

{"molecule": "CN(C)c1ccc(-c2cc(-c3ccc(Nc4nc(Nc5ccc(Cl)cc5)nc(Nc5ccc(Cl)cc5)n4)cc3)nc(N)c2C#N)cc1", "property label": "TGI", "value observed": "> 100 µM"}
{"molecule": "O=C1CC(c2ccc(Cl)cc2)=Nc2ccccc2N1", "property label": "TGI", "value observed": "76.6 µM"}
{"molecule": "CN=c1sc2c(n1C)C(=O)c1ccccc1C2=O", "property label": "TGI", "value observed": "15.3 µM"}
{"molecule": "CCOc1cnc(C(O)(c2ccccc2)c2ccccc2)o1", "property label": "TGI", "value observed": "> 100 µM"}
{"molecule": "Cc1cccc(Cn2cc(CO)c3cnccc32)c1", "property label": "TGI", "value observed": "> 100 µM"}
{"molecule": "O=[N+]([O-])c1ccc(-c2ccc(C3=Nn4c(CNc5ccccc5Cl)nnc4SC3)o2)cc1", "property label": "TGI", "value observed": "> 100 µM"}
{"molecule": "O=C1c2cc3c(cc2-c2c1c1ccc(Cl)cc1c(=O)n2C[C@H](O)CO)OCO3", "property label": "TGI", "value observed": "2.98 µM"}
{"molecule": "O=c1cc(Nc2cccc(O)c2)[nH]c(=O)[nH]1", "property label": "TGI", "value observed": "> 100 µM"}
{"molecule": "CC(=O)NC1C(O[C@H]2C[C@H]3[C@@H]4CC=C5C[C@@H](O)CC[C@]5(C)[C@H]4CC[C@]3(C)[C@H]2[C@H](C)C(=O)CCC(C)C)OCC(O)C1O (some centres not stated)", "property label": "TGI", "value observed": "> 42.5 µM"}
{"molecule": "Cc1cccc2sc(NC(=O)NS(=O)(=O)n3cnc4ccccc43)nc12", "property label": "TGI", "value observed": "67.1 µM"}
{"molecule": "CCc1ccc(Nc2cc(C)c3ccc(O)cc3n2)cc1", "property label": "TGI", "value observed": "35.3 µM"}
{"molecule": "COc1ccc2ccccc2c1C1=NC(C)(C)CO1", "property label": "TGI", "value observed": "> 100 µM"}
{"molecule": "COc1ccc2nc3c(c(N)c2c1)C1CCC3C1(C)C (configuration not stated)", "property label": "TGI", "value observed": "> 100 µM"}
{"molecule": "CC(=O)OC1COC(N2CCc3cc([N+](=O)[O-])ccc32)C(OC(C)=O)C1OC(C)=O (configuration not stated)", "property label": "TGI", "value observed": "> 100 µM"}
{"molecule": "COc1ccc(OC)c2sc(N3C(=O)/C(=C/c4cccc(Oc5ccccc5)c4)N=C3c3ccccc3)nc12", "property label": "TGI", "value observed": "> 100 µM"}
{"molecule": "C=C(CN1CCc2[nH]c3ccc(F)cc3c2C1)c1ccc(C(=O)Nc2ccccc2N)cc1", "property label": "TGI", "value observed": "3.82 µM"}
{"molecule": "NC(N)=NCCCC(NCc1c2ccccc2nc2ccccc12)C(=O)O (configuration not stated)", "property label": "TGI", "value observed": "> 86 µM"}
{"molecule": "COc1cc(-c2nccc3[nH]c(-c4ccc5cc[nH]c5c4)nc23)cc(OC)c1OC", "property label": "TGI", "value observed": "11.1 µM"}
{"molecule": "C=C1CC[C@@H](CCC2CCC3(OC2)O[C@]2(O)CC[C@@]3(C)OC2(C)C)C(C)(C)[C@H]1C/C=C1\\CCOC1=O (some centres not stated)", "property label": "TGI", "value observed": "> 100 µM"}
{"molecule": "C[C@@H](CC(=O)OCc1ccccc1)OC1OC(COC(=O)C(C)(C)C)C(OC(=O)C(C)(C)C)C(OC(=O)C(C)(C)C)C1OC(=O)C(C)(C)C (some centres not stated)", "property label": "TGI", "value observed": "> 100 µM"}
{"molecule": "O=C(c1ccccc1)C1(Br)S(=O)(=O)OCCOS1(=O)=O", "property label": "TGI", "value observed": "> 100 µM"}
{"molecule": "COc1ccc(-c2cc(/C=C/C(=O)c3ccc(N)cc3)[nH]n2)cc1OC", "property label": "TGI", "value observed": "10.5 µM"}
{"molecule": "COc1ccc(Nc2cnc3cc(N)cc(N)c3n2)cc1", "property label": "TGI", "value observed": "29.4 µM"}
{"molecule": "CCOC(=O)c1c(NC(=O)c2ccccc2)c(C#N)c2n1CCCCC2", "property label": "TGI", "value observed": "> 100 µM"}
{"molecule": "COC(=O)C(C(=O)C(=O)Nc1c(Cl)cc([N+](=O)[O-])cc1Cl)c1csc(-n2nc(C3=CCCCC3)cc2-c2ccccc2)n1 (configuration not stated)", "property label": "TGI", "value observed": "> 100 µM"}
{"molecule": "Cc1nc2ccccc2c(=O)n1/N=C(\\N=Nc1ccccc1Cl)c1ccccc1Cl", "property label": "TGI", "value observed": "> 100 µM"}
{"molecule": "N#CC1CC(c2ccccc2)Nc2cc(Cl)ccc2N1 (configuration not stated)", "property label": "TGI", "value observed": "> 100 µM"}
